system.under.test: Delta-type opioid receptor (Rattus norvegicus, UniProt P33533)
Sequence (P33533 whole entry): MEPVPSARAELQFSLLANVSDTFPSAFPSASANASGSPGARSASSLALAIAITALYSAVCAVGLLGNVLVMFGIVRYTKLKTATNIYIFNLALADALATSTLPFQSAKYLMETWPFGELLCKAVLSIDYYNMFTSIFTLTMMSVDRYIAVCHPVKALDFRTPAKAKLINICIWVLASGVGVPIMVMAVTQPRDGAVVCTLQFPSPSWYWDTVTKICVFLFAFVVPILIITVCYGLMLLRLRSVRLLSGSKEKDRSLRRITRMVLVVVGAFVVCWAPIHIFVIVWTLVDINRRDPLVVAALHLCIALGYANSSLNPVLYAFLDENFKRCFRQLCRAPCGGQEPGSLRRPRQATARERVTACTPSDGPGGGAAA
test.name: Binding affinity against rat brain opioid receptor delta 1 using [3H]DPDPE radioligand
Where a SMILES comes first, the peptide text is derived from it. [ ]: non-standard residue; d: D form. Dmt = Cc1cc(O)cc(C)c1C[C@H](N)C(=O)O
Sorting guide: entries reporting Ki beneath 3 µM go in the met pile, the rest go in the not met pile.

# compound, assigned.label
records = [
    ("Cc1cc(O)cc(C)c1C[C@H](N)C(=O)N1CCC[C@H]1C(=O)N[C@@H](Cc1ccccc1)C(N)=O (H-[Dmt]-Pro-Phe-NH2)", "met"),
]

*Q* API: query returns whether the compound falls strictly under 3 µM in Ki. Query: `N[C@@H](Cc1ccc(O)cc1)C(=O)N1CCC[C@H]1C(=O)N[C@@H](Cc1ccccc1)C(=O)Nc1cnc2ccccc2c1`
*A* not met

*Q* Entry `N[C@@H](Cc1ccc(O)cc1)C(=O)N1CCC[C@H]1C(=O)N[C@@H](Cc1ccccc1)C(=O)Nc1cccc2cnccc12` please
*A* not met

*Q* `Cc1cc(O)cc(C)c1C[C@H](N)C(=O)N1CCC[C@H]1C(=O)N[C@@H](Cc1ccccc1)C(=O)Nc1ccccn1` ?
*A* met
